- experimentNotes: Toxicity in J:Nu mouse assessed as maximum tolerated dose at 10 to 120 mg/kg, po qd for 13 days
- Type: organism-based
- measurementContext: in vivo

[
  {
    "smi": "Cc1nn(-c2nc(-c3ccc(Cl)c(Cl)c3)c(SC(C)C)s2)c(C(=O)O)c1-c1cc(Cl)cc(Cl)c1",
    "MTD at 312 h / mg/kg": 90
  }
]

###

- experimentNotes: Protein binding in mouse plasma
- Type: ADME, cell-free
- measurementContext: read-out: PPB (converted)
experimentalEndpoint: fraction unbound

[
  {
    "smi": "Cc1nn(-c2nc(-c3ccc(Cl)c(Cl)c3)c(SC(C)C)s2)c(C(=O)O)c1-c1cc(Cl)cc(Cl)c1",
    "readoutNumber": 0.008
  }
]

###

- experimentNotes: Oral bioavailability in mouse
- Type: ADME, organism-based
- measurementContext: in vivo
experimentalEndpoint: bioavailability (%)

[
  {
    "smi": "Cc1nn(-c2nc(-c3ccc(Cl)c(Cl)c3)c(SC(C)C)s2)c(C(=O)O)c1-c1cc(Cl)cc(Cl)c1",
    "unitName": "%",
    "readoutNumber": 48.4
  }
]

###

- experimentNotes: Protein binding in human plasma
- Assay type: ADME, cell-free
- measurementContext: read-out: PPB (converted)
experimentalEndpoint: fraction unbound

[
  {
    "smi": "Cc1nn(-c2nc(-c3ccc(Cl)c(Cl)c3)c(SC(C)C)s2)c(C(=O)O)c1-c1cc(Cl)cc(Cl)c1",
    "readoutNumber": 0.027
  }
]

###

- experimentNotes: Antiproliferative activity against human […] cells
- Format: functional, cell-based
pIC50: −log10 of the molar value.

[
  {
    "smi": "Cc1nn(-c2nc(-c3ccc(Cl)c(Cl)c3)c(SC(C)C)s2)c(C(=O)O)c1-c1cc(Cl)cc(Cl)c1",
    "pIC50": 5.80
  }
]

###

- experimentNotes: MRT in mouse at 2.5 mg/kg, po
- Assay type: ADME, organism-based
- measurementContext: in vivo

[
  {
    "smi": "Cc1nn(-c2nc(-c3ccc(Cl)c(Cl)c3)c(SC(C)C)s2)c(C(=O)O)c1-c1cc(Cl)cc(Cl)c1",
    "MRT / h": 15.1
  }
]

###

- experimentNotes: Plasma concentration (7 hrs) in J:Nu mouse at 60 mg/kg, po qd for 7 days measured on day 1
- Assay type: ADME, organism-based

[
  {
    "smi": "Cc1nn(-c2nc(-c3ccc(Cl)c(Cl)c3)c(SC(C)C)s2)c(C(=O)O)c1-c1cc(Cl)cc(Cl)c1",
    "concentration at 7 h / µg/mL": 88.8
  }
]

###

- experimentNotes: AUC (0 to infinity) in J:Nu mouse plasma at 60 mg/kg, po qd for 7 days followed by 120 mg/kg, po qd for 5 days from day 8 to 13
- Type: ADME, organism-based
- Design: dose 60 mg/kg, route oral, time infinity

[
  {
    "smi": "Cc1nn(-c2nc(-c3ccc(Cl)c(Cl)c3)c(SC(C)C)s2)c(C(=O)O)c1-c1cc(Cl)cc(Cl)c1",
    "AUC(0-inf) / µg·h/mL": 1540
  }
]

###

- experimentNotes: AUC (0 to infinity) in iv dosed mouse
- Type: ADME, organism-based
- Parameters: time infinity, route intravenous
- measurementContext: in vivo

[
  {
    "smi": "Cc1nn(-c2nc(-c3ccc(Cl)c(Cl)c3)c(SC(C)C)s2)c(C(=O)O)c1-c1cc(Cl)cc(Cl)c1",
    "AUC(0-inf), ng·h/mL": 10700
  }
]
